Test system: 3797 S. aureus (GISA)
Experiment: MIC, broth microdilution in Meuller-Hinton broth (NCCLS)
Format: cell-based, Staphylococus aureus
Details: glycopeptides-intermediate clinical isolate
Please go through the items and note down their MIC 3797 S. aureus (GISA).
Answers are plain numbers, in µg/mL.

• CNC(CC(C)C)C(=O)NC1C(=O)NC(CC(N)=O)C(=O)NC2C(=O)NC3C(=O)NC(C(=O)NC(C(=O)NC(C)C45CC6CC(CC(C6)C4)C5)c4cc(O)cc(O)c4-c4cc3ccc4O)C(OC3CC(C)(N)C(O)C(C)O3)c3ccc(cc3)Oc3cc2cc(c3OC2OC(CO)C(O)C(O)C2OC2CC(C)(N)C(O)C(C)O2)Oc2ccc(cc2Cl)C1O (stereo not drawn) [Compound 262] = 4

# input for lookup
# MIC 3797 S. aureus (GISA) lookup, item CCCCc1ccc(CNCC(=O)NC2(C)CC(OC3C(Oc4c5cc6cc4Oc4ccc(cc4Cl)C(O)C4NC(=O)C(NC(=O)C6NC(=O)C(CC(N)=O)NC(=O)C(NC(=O)C(CC(C)C)NC)C(O)c6ccc(c(Cl)c6)O5)c5ccc(O)c(c5)-c5c(O)cc(O)cc5C(C(=O)NCc5ccc(F)cc5)NC4=O)OC(CO)C(O)C3O)OC(C)C2O)cc1 (stereo not drawn) [Compound 276]
2

====

Tested on: 3798 S. aureus (GISA)
Experiment: MIC, broth microdilution in Meuller-Hinton broth (NCCLS)
Assay type: cell-based, Staphylococus aureus
Conditions: glycopeptides-intermediate clinical isolate
assay-endpoint: MIC 3798 S. aureus (GISA) (µg/mL)
Numbers only, in µg/mL.

In the examples that follow, each entry is paired with its recorded MIC 3798 S. aureus (GISA).
- CNC(CC(C)C)C(=O)NC1C(=O)NC(CC(N)=O)C(=O)NC2C(=O)NC3C(=O)NC(C(=O)NC(C(=O)O)c4cc(O)cc(O)c4-c4cc3ccc4O)C(OC3CC(C)(N)C(O)C(C)O3)c3ccc(cc3)Oc3cc2cc(c3OC2OC(CO)C(O)C(O)C2OC2CC(C)(NC(=O)CNCc3cn(Cc4ccccc4)c4ccccc34)C(O)C(C)O2)Oc2ccc(cc2Cl)C1O (stereo not drawn) [Compound 225]: 4
- CNC(CC(C)C)C(=O)NC1C(=O)NC(CC(N)=O)C(=O)NC2C(=O)NC3C(=O)NC(C(=O)NC(C(=O)O)c4cc(O)cc(O)c4-c4cc3ccc4O)C(OC3CC(C)(N)C(O)C(C)O3)c3ccc(cc3)Oc3cc2cc(c3OC2OC(CO)C(O)C(O)C2OC2CC(C)(NC(=O)[C@@H](N)Cc3ccc(OCc4ccccc4)cc3)C(O)C(C)O2)Oc2ccc(cc2Cl)C1O (stereo partly drawn) [Compound 228]: 16

# input for lookup
# MIC 3798 S. aureus (GISA) lookup, item CNC(CC(C)C)C(=O)NC1C(=O)NC(CC(N)=O)C(=O)NC2C(=O)NC3C(=O)NC(C(=O)NC(C(=O)O)c4cc(O)cc(O)c4-c4cc3ccc4O)C(OC3CC(C)(N)C(O)C(C)O3)c3ccc(cc3)Oc3cc2cc(c3OC2OC(CO)C(O)C(O)C2OC2CC(C)(NC(=O)CNCc3ccc4c(c3)Cc3ccccc3-4)C(O)C(C)O2)Oc2ccc(cc2Cl)C1O (stereo not drawn) [Compound 292]
8

====

Tested on: 559 E. faecalis (GSE)
Assay: MIC, broth microdilution in Meuller-Hinton broth (NCCLS)
Type: cell-based, Enterococcus faecalis
Details: glycopeptide-sensitive clinical isolate
Lab note: compare MIC 559 E. faecalis (GSE) with 2 µg/mL, writing Y if less and N if equal or more.

- CCCCCCCCCCN(CCCCCCCCCC)CC(=O)NC1(C)CC(OC2C(Oc3c4cc5cc3Oc3ccc(cc3Cl)C(O)C(NC(=O)C(CC(C)C)NC)C(=O)NC(CC(N)=O)C(=O)NC5C(=O)NC3C(=O)NC(C(=O)NC(C(=O)O)c5cc(O)cc(O)c5-c5cc3ccc5O)C(OC3CC(C)(N)C(O)C(C)O3)c3ccc(cc3)O4)OC(CO)C(O)C2O)OC(C)C1O (centres unmarked): N
- CNC(CC(C)C)C(=O)NC1C(=O)NC(CC(N)=O)C(=O)NC2C(=O)NC3C(=O)NC(C(=O)NC(C(=O)O)c4cc(O)cc(O)c4-c4cc3ccc4O)C(OC3CC(C)(N)C(O)C(C)O3)c3ccc(cc3)Oc3cc2cc(c3OC2OC(CO)C(O)C(O)C2OC2CC(C)(NC(=O)CNCc3ccc(C(F)(F)F)cc3)C(O)C(C)O2)Oc2ccc(cc2Cl)C1O (centres unmarked): Y

Hello, I'm reviewing records and need to know if MIC 559 E. faecalis (GSE) of CCCCCCCCOc1ccc(CNCC(=O)NC2(C)CC(OC3C(Oc4c5cc6cc4Oc4ccc(cc4Cl)C(O)C(NC(=O)C(CC(C)C)NC)C(=O)NC(CC(N)=O)C(=O)NC6C(=O)NC4C(=O)NC(C(=O)NC(C(=O)O)c6cc(O)cc(O)c6-c6cc4ccc6O)C(OC4CC(C)(N)C(O)C(C)O4)c4ccc(cc4)O5)OC(CO)C(O)C3O)OC(C)C2O)cc1 (centres unmarked) is below 2 µg/mL. Could you check?
Y

Hello, I'm reviewing records and need to know if MIC 559 E. faecalis (GSE) of CNC(CC(C)C)C(=O)NC1C(=O)NC(CC(N)=O)C(=O)NC2C(=O)NC3C(=O)NC(C(=O)NC(C(=O)NCc4ccc(F)cc4)c4cc(O)cc(O)c4-c4cc3ccc4O)C(O)c3ccc(c(Cl)c3)Oc3cc2cc(c3OC2OC(CO)C(O)C(O)C2OC2CC(C)(N)C(O)C(C)O2)Oc2ccc(cc2Cl)C1O (centres unmarked) is below 2 µg/mL. Could you check?
Y

Hello, I'm reviewing records and need to know if MIC 559 E. faecalis (GSE) of CCCCc1ccc(CNCC(=O)NC2(C)CC(OC3C(Oc4c5cc6cc4Oc4ccc(cc4Cl)C(O)C(NC(=O)C(CC(C)C)NC)C(=O)NC(CC(N)=O)C(=O)NC6C(=O)NC4C(=O)NC(C(=O)NC(C(=O)O)c6cc(O)cc(O)c6-c6cc4ccc6O)C(OC4CC(C)(N)C(O)C(C)O4)c4ccc(cc4)O5)OC(CO)C(O)C3O)OC(C)C2O)cc1 (centres unmarked) is below 2 µg/mL. Could you check?
Y

====

Test system: 3797 S. aureus (GISA)
Assay: MIC, broth microdilution in Meuller-Hinton broth (NCCLS)
Format: cell-based, Staphylococus aureus
Conditions: glycopeptides-intermediate clinical isolate
assay-endpoint: MIC 3797 S. aureus (GISA)
Put your answer as a value accompanied by its unit after it.

In the examples that follow, each entry is paired with its recorded MIC 3797 S. aureus (GISA).
• CNC(CC(C)C)C(=O)NC1C(=O)NC(CC(N)=O)C(=O)NC2C(=O)NC3C(=O)NC(C(=O)NC(C(=O)O)c4cc(O)cc(O)c4-c4cc3ccc4O)C(O)c3ccc(c(Cl)c3)Oc3cc2cc(c3OC2OC(CO)C(O)C(O)C2OC2CC(C)(NC(=O)CNc3ccc4ccccc4n3)C(O)C(C)O2)Oc2ccc(cc2Cl)C1O (stereo not drawn) = 8 µg/mL
• CNC(CC(C)C)C(=O)NC1C(=O)NC(CC(N)=O)C(=O)NC2C(=O)NC3C(=O)NC(C(=O)NC(C(=O)O)c4cc(O)cc(O)c4-c4cc3ccc4O)C(OC3CC(C)(N)C(O)C(C)O3)c3ccc(cc3)Oc3cc2cc(c3OC2OC(CO)C(O)C(O)C2OC2CC(C)(NC(=O)CNCc3ccc(C(F)(F)F)cc3)C(O)C(C)O2)Oc2ccc(cc2Cl)C1O (stereo not drawn) = 4 µg/mL

# input for lookup
# MIC 3797 S. aureus (GISA) lookup, item CNC(CC(C)C)C(=O)NC1C(=O)NC(CC(N)=O)C(=O)NC2C(=O)NC3C(=O)NC(C(=O)NC(C(=O)O)c4cc(O)cc(O)c4-c4cc3ccc4O)C(OC3CC(C)(N)C(O)C(C)O3)c3ccc(cc3)Oc3cc2cc(c3OC2OC(CO)C(O)C(O)C2OC2CC(C)(NC(=O)CNCc3ccc(-c4ccc(Cl)cc4)cc3)C(O)C(C)O2)Oc2ccc(cc2Cl)C1O (stereo not drawn)
4 µg/mL

====

System: 3797 S. aureus (GISA)
Experiment: MIC, broth microdilution in Meuller-Hinton broth (NCCLS)
Type: cell-based, Staphylococus aureus
Conditions: glycopeptides-intermediate clinical isolate
Please go through the items and note down their MIC 3797 S. aureus (GISA).
Answers are plain numbers, in µg/mL.

- CCCCc1ccc(CNCC(=O)NC2(C)CC(OC3C(Oc4c5cc6cc4Oc4ccc(cc4Cl)C(O)C(NC(=O)C(CC(C)C)NC)C(=O)NC(CC(N)=O)C(=O)NC6C(=O)NC4C(=O)NC(C(=O)NC(C(=O)NC6C7CC8CC(C7)CC6C8)c6cc(O)cc(O)c6-c6cc4ccc6O)C(OC4CC(C)(N)C(O)C(C)O4)c4ccc(cc4)O5)OC(CO)C(O)C3O)OC(C)C2O)cc1 (stereo not drawn) [Compound 263]: 16
- CNC(CC(C)C)C(=O)NC1C(=O)NC(CC(N)=O)C(=O)NC2C(=O)NC3C(=O)NC(C(=O)NC(C(=O)O)c4cc(O)cc(O)c4-c4cc3ccc4O)C(OC3CC(C)(N)C(O)C(C)O3)c3ccc(cc3)Oc3cc2cc(c3OC2OC(CO)C(O)C(O)C2OC2CC(C)(NC(=O)CNCc3c[nH]c4ccc(OCc5ccccc5)cc34)C(O)C(C)O2)Oc2ccc(cc2Cl)C1O (stereo not drawn) [Compound 224]: 8
- CNC(CC(C)C)C(=O)NC1C(=O)NC(CC(N)=O)C(=O)NC2C(=O)NC3C(=O)NC(C(=O)NC(C(=O)O)c4cc(O)cc(O)c4-c4cc3ccc4O)C(O)c3ccc(c(Cl)c3)Oc3cc2cc(c3OC2OC(CO)C(O)C(O)C2OC2CC(C)(NC(=O)CNCc3ccc(-c4ccc(Cl)cc4)cc3)C(O)C(C)O2)Oc2ccc(cc2Cl)C1O (stereo not drawn) [Compound 210]: 1

Below are some molecules; for each one, tell me its MIC 3797 S. aureus (GISA).
1. CCCCCCCCCC(=O)NCC(=O)NC1(C)CC(OC2C(Oc3c4cc5cc3Oc3ccc(cc3Cl)C(O)C(NC(=O)C(CC(C)C)NC)C(=O)NC(CC(N)=O)C(=O)NC5C(=O)NC3C(=O)NC(C(=O)NC(C(=O)O)c5cc(O)cc(O)c5-c5cc3ccc5O)C(OC3CC(C)(N)C(O)C(C)O3)c3ccc(cc3)O4)OC(CO)C(O)C2O)OC(C)C1O (stereo not drawn) [Compound 186]
2. CCCCCCCCOc1ccc(CNCC(=O)NC2(C)CC(OC3C(Oc4c5cc6cc4Oc4ccc(cc4Cl)C(O)C4NC(=O)C(NC(=O)C6NC(=O)C(CC(N)=O)NC(=O)C(NC(=O)C(CC(C)C)NC)C(O)c6ccc(c(Cl)c6)O5)c5ccc(O)c(c5)-c5c(O)cc(O)cc5C(C(=O)NCc5ccc(F)cc5)NC4=O)OC(CO)C(O)C3O)OC(C)C2O)cc1 (stereo not drawn) [Compound 277]

[16, 8]

# MIC 3797 S. aureus (GISA) lookup, item CNC(CC(C)C)C(=O)NC1C(=O)NC(CC(N)=O)C(=O)NC2C(=O)NC3C(=O)NC(C(=O)NC(C(=O)O)c4cc(O)cc(O)c4-c4cc3ccc4O)C(OC3CC(C)(N)C(O)C(C)O3)c3ccc(cc3)Oc3cc2cc(c3OC2OC(CO)C(O)C(O)C2OC2CC(C)(NC(=O)CNCc3ccc4c(c3)Cc3ccccc3-4)C(O)C(C)O2)Oc2ccc(cc2Cl)C1O (stereo not drawn) [Compound 292]
8

The reported measurements were obtained from patent US7632918B2.
